System Name: GHS1A-receptor (Homo sapiens, UniProt Q92847)
Construct: expressed in transfected cells; host or cells: HEK293
Sequence (Q92847 whole entry): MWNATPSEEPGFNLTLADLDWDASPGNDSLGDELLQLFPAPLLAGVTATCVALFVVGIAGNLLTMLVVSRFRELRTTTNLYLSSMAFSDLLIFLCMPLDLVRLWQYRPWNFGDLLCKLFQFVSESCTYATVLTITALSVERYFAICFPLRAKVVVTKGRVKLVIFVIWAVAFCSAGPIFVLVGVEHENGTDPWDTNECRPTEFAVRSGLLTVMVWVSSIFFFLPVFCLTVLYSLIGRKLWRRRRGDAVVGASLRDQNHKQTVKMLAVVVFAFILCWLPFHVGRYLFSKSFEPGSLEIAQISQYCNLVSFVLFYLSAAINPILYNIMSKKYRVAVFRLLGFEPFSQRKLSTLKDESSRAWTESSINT
Assay Summary: Ghrelin-agonism in HEK293 cells (intracellular calcium, FLIPR)
Type: cell-based
Measurement Parameters: HEK293 cells permanently transfected with GHS1A-receptor, calcium fluorescence (fluo-4 or Kit-3), EC50 in M, read-out: pEC50 (converted)
Measured Endpoint: log10 EC50 (log10 of the value in nM)

- COCCN(C)CCCC1(O)c2ccccc2CCCC1c1ccc(C)cc1 (racemic): 1.90
- CCN(CC)CCCC1(O)c2ccccc2OCCC1c1ccc(Cl)c(OC)c1 (racemic): 1.00
- CN(C)CCCC1(O)c2ccccc2CCCC1c1cncnc1 (racemic): 3.90
- Cc1ccc(C2CCCc3ccccc3C2(O)CCCN2CCCC2)cc1 (racemic): 2.20
- CN(C)CCCC1(O)c2ccccc2CCCC1c1ccc(Br)cc1 (racemic): 1.40
- CC(=O)N1CCN(CCCC2(O)c3ccccc3CCCC2c2cccc(C)c2)CC1 (racemic): 3.50
- COc1ccc(C2CCCc3ccccc3C2(O)CCCN(C)C)cc1OC (racemic): 2.90
- CN(C)CCCC1(O)c2ccccc2CCCC1c1cncc(Cl)c1 (racemic): 1.70
- CN(C)CCCC1(O)c2ccccc2CCCC1c1ccccc1 (single isomer, unassigned) [Compound 104]: 3.30
- CCN(CC)CCCC1(O)c2ccccc2CCCC1c1ccc2c(c1)OCO2 (racemic): 1.60
- COCCN(C)CCCC1(O)c2ccccc2CCCC1c1cccc(Cl)c1 (racemic): 1.70
- COCCN(C)CCCC1(O)c2ccccc2CCCC1c1cccc(C)c1 (racemic): 1.50
- COc1cc(C2CCCc3ccccc3C2(O)CCCN(C)C)ccc1Cl (racemic): 1.00
- CN(C)CCCC1(O)c2ccccc2OCCC1c1ccc(Cl)cc1 (racemic): 1.50
- CN1CCN(CCCC2(O)c3ccccc3CCCC2c2ccc(F)cc2)CC1 (racemic): 3.20
- COc1cccc(C2CCCc3ccccc3C2(O)CCCN(C)Cc2ccccc2)c1 (racemic): 3.40
- CN(C)CCCC1(O)c2ccccc2CCCC1c1ccc2c(c1)OCO2 (racemic): 1.80
- COc1cc(C2CCCc3ccccc3C2(O)CCCN2CCC(O)C2)ccc1Cl (racemic): 2.50
- COCCN(C)CCCC1(O)c2ccccc2CCCC1c1ccc2c(c1)OCO2 (racemic): 2.20
- COc1ccccc1C1CCOc2ccccc2C1(O)CCCN(C)C (racemic): 3.30
- COCCN(C)CCCC1(O)c2ccccc2CCCC1c1ccc(OC)cc1 (racemic): 3.10
- CNCCCC1(O)c2ccccc2CCCC1c1cccc(Cl)c1 (racemic): 1.70
- CCN(CC)CCCC1(O)c2ccccc2CCCC1c1ccc(Cl)cc1 (racemic): 2.30
- CN(C)CCCC1(O)c2ccccc2CCCC1c1cnc2ccccc2c1 (racemic): 2.00
- COc1cncc(C2CCOc3ccccc3C2(O)CCCN(C)C)c1 (racemic): 3.60
- CNCCCC1(O)c2ccccc2CCCC1c1ccc(OC)cc1 (racemic): 2.90
- OC1(CCCN2CCCC2)c2ccccc2CCCC1c1ccccc1 (racemic): 1.90
- CNCCCC1(O)c2ccccc2CCCC1c1ccc(C)cc1 (racemic): 1.90
